target system: anti-CC49 variable region (anti-idiotypic) antibodies in the serum of patient five
assay method text: HPLC size exclusion; 5 µg cold competitor + ^125I-HuCC49 + patient serum; less complex = more competition
measurement label: percent of complexes (%)
Reply with just the number (in %).

Give the measured percent of complexes of HuCC49 CDR variant H-3 (antibody, V domains shown) VH: QVQLVQSGAEVVKPGASVKISCKASGYTFTDHAIHWVKQNPGQRLEWIGYFSPGNDDFKYNERFKGKATLTADTSASTAYVELSSLRSEDTAVYFCTRGGYYGSGSGSNYWGQGTLVTVSS VL: DIVMSQSPDSLAVSLGERVTLNCKSSQSLLYSGNQKNYLAWYQQKPGQSPKLLIYWASARESGVPDRFSGSGSGTDFTLTISSVQAEDVAVYYCQQYYSYPLTFGAGTKLELK .
4.6

What do you get for HuCC49 CDR variant H-2 (antibody, V domains shown) VH: QVQLVQSGAEVVKPGASVKISCKASGYTFTDHAIHWVKQNPGQRLEWIGWINAGNGNTKYSQKFQGKATLTADTSASTAYVELSSLRSEDTAVYFCTRSLNMAYWGQGTLVTVSS VL: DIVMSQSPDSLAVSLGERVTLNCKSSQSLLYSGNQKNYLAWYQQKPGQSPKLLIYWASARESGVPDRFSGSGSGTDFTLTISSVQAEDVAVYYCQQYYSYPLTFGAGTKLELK ?
36.6

What do you get for humanized monoclonal antibody HuCC49 (parental HuCC49) (antibody, V domains shown) VH: QVQLVQSGAEVVKPGASVKISCKASGYTFTDHAIHWVKQNPGQRLEWIGYFSPGNDDFKYNERFKGKATLTADTSASTAYVELSSLRSEDTAVYFCTRSLNMAYWGQGTLVTVSS VL: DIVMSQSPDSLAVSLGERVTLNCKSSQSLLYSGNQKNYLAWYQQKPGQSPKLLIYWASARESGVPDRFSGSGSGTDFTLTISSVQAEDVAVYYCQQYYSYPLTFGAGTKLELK ?
3
